system: HL-1; assay: cardiomyocyte survival under oxidative or metabolic stress – cell-based, panel, H9c2 and HL-1, H2O2, 2-deoxyglucose, ATP luminescence, SAR follow-up (AID 651642); conditions: H9c2/HL-1 cardiomyocyte H2O2 oxidative damage, run 2, with H2O2
# reported IC50; entries follow
Respond with the bare value in µM.

Here are 2 compounds together with their reported answers.
- SMILES_INPUT: "COc1cc(-c2cc(C(=O)Nc3cccc(C(=O)NCc4ccccc4)c3)c3ccccc3n2)cc(OC)c1OC"
  MEASURED: 2.25
- SMILES_INPUT: "CCOC(=O)c1cccc(NC(=O)CNC(=O)c2cc(-c3cc(OC)c(OC)c(OC)c3)nc3ccccc23)c1"
  MEASURED: 17.9

# input Sample COc1cc(-c2cc(C(=O)Nc3cccc(C(N)=O)c3)c3ccccc3n2)cc(OC)c1OC — what was its IC50?
# output 5.96

# input Sample CCNC(=O)c1cccc(NC(=O)c2cc(-c3cc(OC)c(OC)c(OC)c3)nc3ccccc23)c1 — what was its IC50?
# output 11.5

# input Sample COc1cc(-c2cc(C(=O)Nc3cccc(-c4nn[nH]n4)c3)c3ccccc3n2)cc(OC)c1OC — what was its IC50?
# output 28.8

# input Sample COc1cc(-c2cc(C(=O)Nc3cccc(C(C)=O)c3)c3cc(C)ccc3n2)cc(OC)c1OC — what was its IC50?
# output 5.7

# input Sample COc1cc(-c2cc(C(=O)Nc3cccc(C(=O)N(C)C)c3)c3ccccc3n2)cc(OC)c1OC — what was its IC50?
# output 12.8

====

# reported IC50; entries follow
system: H9c2; assay: cardiomyocyte survival under oxidative or metabolic stress – cell-based, panel, H9c2 and HL-1, H2O2, 2-deoxyglucose, ATP luminescence, SAR follow-up (AID 651642); details: H9c2/HL-1 cardiomyocyte H2O2 oxidative damage, run 3, with H2O2
Respond with the bare value in µM.

# input Sample COc1cc(-c2cc(C(=O)Nc3cccc(-c4nn[nH]n4)c3)c3ccccc3n2)cc(OC)c1OC — what was its IC50?
# output 16.4

# input Sample COc1cc(-c2cc(C(=O)Nc3cccc(C(=O)NC4CC4)c3)c3ccccc3n2)cc(OC)c1OC — what was its IC50?
# output 2.22

# input Sample COc1cc(-c2cc(C(=O)Nc3cccc(C(=O)Nc4ccccc4)c3)c3ccccc3n2)cc(OC)c1OC — what was its IC50?
# output 0.724

# input Sample COc1ccc2nc(-c3cc(OC)c(OC)c(OC)c3)cc(C(=O)NCC(=O)Nc3ccc(C(C)=O)cc3)c2c1 — what was its IC50?
# output 0.928

# input Sample CCOC(=O)c1cccc(NC(=O)CNC(=O)c2cc(-c3cc(OC)c(OC)c(OC)c3)nc3ccc(OC)cc23)c1 — what was its IC50?
# output 0.483

# input Sample COc1cc(-c2cc(C(=O)NCC(=O)Nc3cccc(C(C)=O)c3)c3cc(F)ccc3n2)cc(OC)c1OC — what was its IC50?
# output 0.789

====

system: HL-1; assay: cardiomyocyte survival under oxidative or metabolic stress – cell-based, panel, H9c2 and HL-1, H2O2, 2-deoxyglucose, ATP luminescence, SAR follow-up (AID 651642); conditions: H9c2/HL-1 cardiomyocyte 2-deoxyglucose damage, mean of runs, with 2-deoxyglucose, mean IC50 across panel
EXPERIMENTAL_ENDPOINT: pIC50
Entry type: numeric. Quantity: pIC50, the -log10 of concentration in molar units.

Here are 3 compounds together with their reported answers.
- COMPOUND: "CCOC(=O)c1cccc(NC(=O)CNC(=O)c2cc(-c3cc(OC)c(OC)c(OC)c3)nc3ccc(F)cc23)c1"
  TGT: "HL-1"
  pIC50: 5.59
- COMPOUND: "COc1cc(-c2cc(C(=O)NCC(=O)Nc3cccc(C(C)=O)c3)c3cc(Br)ccc3n2)cc(OC)c1OC"
  TGT: "HL-1"
  pIC50: 5.42
- COMPOUND: "COc1ccc2c(c1OC)C(=O)N1c3ccccc3C(=O)N(Cc3cccc(F)c3)C21 (stereo not drawn)"
  TGT: "HL-1"
  pIC50: 5.18

# input Sample COc1cc(-c2cc(C(=O)Nc3cccc(C(=O)NCc4ccccc4)c3)c3ccccc3n2)cc(OC)c1OC — what was its pIC50?
# output 5.87

# input Sample COc1ccc2nc(-c3cc(OC)c(OC)c(OC)c3)cc(C(=O)NCC(=O)Nc3ccc(C(C)=O)cc3)c2c1 — what was its pIC50?
# output 5.36

# input Sample COc1cc(-c2cc(C(=O)Nc3cccc(C(=O)NC4CC4)c3)c3ccccc3n2)cc(OC)c1OC — what was its pIC50?
# output 5.19

# input Sample COc1cccc(CNC(=O)CNC(=O)c2cc(-c3cc(OC)c(OC)c(OC)c3)nc3ccccc23)c1 — what was its pIC50?
# output 4.82

# input Sample COc1cc(-c2cc(C(=O)Nc3cccc(C(=O)N4CCOCC4)c3)c3ccccc3n2)cc(OC)c1OC — what was its pIC50?
# output 4.72

# input Sample COc1cc(-c2cc(C(=O)Nc3cccc(C(N)=O)c3)c3ccccc3n2)cc(OC)c1OC — what was its pIC50?
# output 4.85

# input Sample COc1cc(-c2cc(C(=O)Nc3cccc(C(=O)Nc4ccccc4)c3)c3ccccc3n2)cc(OC)c1OC — what was its pIC50?
# output 5.92

# input Sample COc1ccc2c(c1OC)C(=O)N1c3ccccc3C(=O)N(Cc3ccccc3)C21 (stereo not drawn) — what was its pIC50?
# output 4.99

# input Sample COc1ccc2c(c1OC)C(=O)N1c3ccccc3C(=O)N(Cc3ccc(F)cc3)C21 (stereo not drawn) — what was its pIC50?
# output 4.72

# input Sample CCOC(=O)c1cccc(NC(=O)CNC(=O)c2cc(-c3cc(OC)c(OC)c(OC)c3)nc3ccc(OC)cc23)c1 — what was its pIC50?
# output 5.64

# input Sample COc1ccc2c(c1OC)C(=O)N1c3ccccc3C(=O)N(Cc3ccccc3F)C21 (stereo not drawn) — what was its pIC50?
# output 5.15

# input Sample COc1cc(-c2cc(C(=O)Nc3cccc(-c4nn[nH]n4)c3)c3ccccc3n2)cc(OC)c1OC — what was its pIC50?
# output 4.32

# input Sample COc1cc(-c2cc(C(=O)NCC(=O)Nc3cccc(C(C)=O)c3)c3cc(F)ccc3n2)cc(OC)c1OC — what was its pIC50?
# output 5.20

====

tested on: HL-1; test: cardiomyocyte survival under oxidative or metabolic stress – cell-based, panel, H9c2 and HL-1, H2O2, 2-deoxyglucose, ATP luminescence, SAR follow-up (AID 651642); conditions: H9c2/HL-1 cardiomyocyte 2-deoxyglucose damage, run 1, with 2-deoxyglucose
# reported IC50; entries follow
Respond with the bare value in µM.

# input Sample COc1ccccc1CN1C(=O)c2ccccc2N2C(=O)c3c(ccc(OC)c3OC)C12 (centres undefined) — what was its IC50?
# output 2.86

# input Sample CCOC(=O)c1cccc(NC(=O)CNC(=O)c2cc(-c3cc(OC)c(OC)c(OC)c3)nc3ccc(F)cc23)c1 — what was its IC50?
# output 1.56

# input Sample COc1cc(-c2cc(C(=O)Nc3cccc(C(=O)N4CCOCC4)c3)c3ccccc3n2)cc(OC)c1OC — what was its IC50?
# output 8.16

# input Sample COc1ccc2c(c1OC)C(=O)N1c3ccccc3C(=O)N(Cc3ccccc3)C21 (centres undefined) — what was its IC50?
# output 3.57

# input Sample COc1ccc2c(c1OC)C(=O)N1c3ccccc3C(=O)N(Cc3ccccc3Br)C21 (centres undefined) — what was its IC50?
# output 2.54

# input Sample CCOC(=O)c1cccc(NC(=O)c2cc(-c3cc(OC)c(OC)c(OC)c3)nc3ccc(F)cc23)c1 — what was its IC50?
# output 3.32

====

system: HL-1; experiment: cardiomyocyte survival under oxidative or metabolic stress – cell-based, panel, H9c2 and HL-1, H2O2, 2-deoxyglucose, ATP luminescence, SAR follow-up (AID 651642); conditions: H9c2/HL-1 cardiomyocyte 2-deoxyglucose damage, run 1, with 2-deoxyglucose
# reported pIC50; entries follow
Entry type: numeric. Quantity: pIC50, the -log10 of concentration in molar units.

- MOLECULE: "CCOC(=O)c1cccc(NC(=O)CNC(=O)c2cc(-c3cc(OC)c(OC)c(OC)c3)nc3ccc(Br)cc23)c1"
  pIC50: 5.90
- MOLECULE: "CCOC(=O)c1cccc(NC(=O)CNC(=O)c2cc(-c3cc(OC)c(OC)c(OC)c3)nc3c(Cl)cccc23)c1"
  pIC50: 5.45
- MOLECULE: "COc1cc(-c2cc(C(=O)Nc3cccc(C(=O)NCc4ccccc4)c3)c3ccccc3n2)cc(OC)c1OC"
  pIC50: 6.13
- MOLECULE: "CCOC(=O)c1cccc(NC(=O)CNC(=O)c2cc(-c3cc(OC)c(OC)c(OC)c3)nc3ccccc23)c1"
  pIC50: 5.68

# input Sample COc1cc(-c2cc(C(=O)NCC(=O)Nc3cccc(C(C)=O)c3)c3ccccc3n2)cc(OC)c1OC — what was its pIC50?
# output 5.56

# input Sample COc1cc(-c2cc(C(=O)Nc3cccc(C(C)=O)c3)c3ccccc3n2)cc(OC)c1OC — what was its pIC50?
# output 5.25

# input Sample COc1cc(-c2cc(C(=O)NCC(=O)Nc3cccc(C(C)=O)c3)c3cc(C)ccc3n2)cc(OC)c1OC — what was its pIC50?
# output 4.87

# input Sample CCOC(=O)c1cccc(NC(=O)CNC(=O)c2cc(-c3cc(OC)c(OC)c(OC)c3)nc3ccc(C)cc23)c1 — what was its pIC50?
# output 5.96

# input Sample COc1cc(-c2cc(C(=O)NCC(=O)Nc3ccc(C(C)=O)cc3)c3cc(F)ccc3n2)cc(OC)c1OC — what was its pIC50?
# output 5.59

# input Sample COc1ccc2c(c1OC)C(=O)N1c3ccccc3C(=O)N(Cc3ccc(F)cc3)C21 (configuration not stated) — what was its pIC50?
# output 5.21

# input Sample CCOC(=O)c1cccc(NC(=O)CNC(=O)c2cc(-c3cc(OC)c(OC)c(OC)c3)nc3ccc(OC)cc23)c1 — what was its pIC50?
# output 5.80

# input Sample COc1ccc2c(c1OC)C(=O)N1c3ccccc3C(=O)N(Cc3ccc(C)cc3)C21 (configuration not stated) — what was its pIC50?
# output 4.94

# input Sample COc1cc(-c2cc(C(=O)Nc3cccc(C(C)=O)c3)c3cc(C)ccc3n2)cc(OC)c1OC — what was its pIC50?
# output 5.32
